Target: human TRPA1 (Homo sapiens, UniProt O75762)
Construct: expressed in transfected cells; host or cells: CHO cells (G-418 selection)
Sequence (O75762 whole entry): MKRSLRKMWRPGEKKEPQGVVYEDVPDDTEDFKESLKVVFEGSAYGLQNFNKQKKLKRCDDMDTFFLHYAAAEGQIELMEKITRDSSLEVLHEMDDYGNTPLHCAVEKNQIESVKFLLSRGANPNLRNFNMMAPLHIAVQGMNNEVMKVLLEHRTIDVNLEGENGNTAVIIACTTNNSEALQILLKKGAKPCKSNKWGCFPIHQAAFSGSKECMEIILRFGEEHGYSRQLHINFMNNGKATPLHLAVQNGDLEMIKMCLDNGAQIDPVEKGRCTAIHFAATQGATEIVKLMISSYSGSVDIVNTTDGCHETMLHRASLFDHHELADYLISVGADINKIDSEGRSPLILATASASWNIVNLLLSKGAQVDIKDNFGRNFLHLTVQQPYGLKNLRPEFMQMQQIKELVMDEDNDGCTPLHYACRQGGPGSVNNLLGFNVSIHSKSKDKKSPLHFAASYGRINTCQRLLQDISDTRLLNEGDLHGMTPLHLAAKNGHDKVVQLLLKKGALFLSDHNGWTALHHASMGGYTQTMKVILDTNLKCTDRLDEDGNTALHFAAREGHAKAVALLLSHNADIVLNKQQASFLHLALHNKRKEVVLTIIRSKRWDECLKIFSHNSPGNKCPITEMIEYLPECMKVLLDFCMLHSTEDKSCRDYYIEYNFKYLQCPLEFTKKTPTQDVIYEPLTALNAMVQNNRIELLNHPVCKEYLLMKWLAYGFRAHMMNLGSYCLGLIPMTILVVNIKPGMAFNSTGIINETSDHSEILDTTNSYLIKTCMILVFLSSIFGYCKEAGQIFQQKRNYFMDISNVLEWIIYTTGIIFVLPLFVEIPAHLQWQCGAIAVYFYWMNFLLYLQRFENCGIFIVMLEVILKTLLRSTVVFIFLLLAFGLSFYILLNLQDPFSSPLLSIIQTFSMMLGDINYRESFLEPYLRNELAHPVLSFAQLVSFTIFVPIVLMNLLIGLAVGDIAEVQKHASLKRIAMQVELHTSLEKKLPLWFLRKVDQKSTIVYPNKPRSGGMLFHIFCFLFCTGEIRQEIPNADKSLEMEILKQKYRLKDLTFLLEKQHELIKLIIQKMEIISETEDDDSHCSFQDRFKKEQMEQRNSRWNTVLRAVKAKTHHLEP
Test: 45Calcium uptake assay, inhibition of AITC induced calcium uptake in human TRPA1 expressing CHO cells
Type: cell-based
Details: 1.0 μM compound, AITC 30 μM, read-out: human TRPA1 Percentage inhibition at 1.0 μM

| chemical.structure | assay.system | unit.of.measurement | inhibition at 1 µM |
| --- | --- | --- | --- |
| Cn1c(=O)c2c(CC(=O)Nc3nc(-c4cc(F)cc(C(F)(F)F)c4)cs3)nsc2n(C)c1=O | human TRPA1 (Homo sapiens, UniProt O75762) | % | 100 |
| Cn1c(=O)c2c(CC(=O)Nc3nc(-c4ccc(F)c(F)c4)cs3)nsc2n(C)c1=O | human TRPA1 (Homo sapiens, UniProt O75762) | % | 97.8 |
| Cn1c(=O)c2c(CC(=O)Nc3nc(-c4ccc(F)c(C(F)(F)F)c4F)cs3)snc2n(C)c1=O | human TRPA1 (Homo sapiens, UniProt O75762) | % | 98.4 |
| Cn1c(=O)c2c(CC(=O)Nc3nc(-c4cccc(C(F)(F)F)c4F)cs3)snc2n(C)c1=O | human TRPA1 (Homo sapiens, UniProt O75762) | % | 98.1 |

====

Molecular target: human TRPA1 (Homo sapiens)
Construct: expressed in transfected cells; host or cells: CHO cells (G-418 selection)
Assay: 45Calcium uptake assay, inhibition of AITC induced calcium uptake in human TRPA1 expressing CHO cells
Assay type: cell-based
Conditions: 1.0 μM compound, AITC 30 μM, read-out: human TRPA1 Percentage inhibition at 1.0 μM

| chemical.structure | inhibition at 1 µM / % |
| --- | --- |
| Cn1c(=O)c2c(CC(=O)Nc3nc(-c4ccc(C(F)(F)F)c(F)c4F)cs3)nsc2n(C)c1=O | 99.8 |
| Cn1c(=O)c2c(CC(=O)Nc3nc(-c4ccc(Cl)c(C(F)(F)F)c4)cs3)snc2n(C)c1=O | 99.3 |
| Cn1c(=O)c2c(CC(=O)Nc3nc(-c4cc(Cl)cc(C(F)(F)F)c4)cs3)nsc2n(C)c1=O | 99.2 |
| Cn1c(=O)c2c(CC(=O)Nc3nc(-c4ccc(Cl)c(Cl)c4)cs3)nsc2n(C)c1=O | 99.9 |
| Cn1c(=O)c2c(CC(=O)Nc3nc(-c4ccc(Cl)cc4)cs3)nsc2n(C)c1=O | 98.4 |
| Cn1c(=O)c2c(CC(=O)Nc3nc(-c4cc(F)c(C(F)(F)F)c(F)c4)cs3)snc2n(C)c1=O | 99.9 |
| Cn1c(=O)c2c(CC(=O)Nc3nc(-c4ccc(F)c(OC(F)(F)F)c4)cs3)nsc2n(C)c1=O | 99.6 |
| Cn1c(=O)c2c(CC(=O)Nc3nc(-c4ccc(Cl)c(C(F)(F)F)c4)cs3)nsc2n(C)c1=O | 98.1 |
| Cn1c(=O)c2c(CC(=O)Nc3nc(-c4ccc(F)cc4F)cs3)nsc2n(C)c1=O | 98 |
| Cn1c(=O)c2c(CC(=O)Nc3nc(-c4ccc(OC(F)(F)F)c(Cl)c4)cs3)nsc2n(C)c1=O | 95.6 |
| Cn1c(=O)c2c(CC(=O)Nc3nc(-c4ccc(C(F)(F)F)c(F)c4)cs3)snc2n(C)c1=O | 99.8 |
| Cn1c(=O)c2c(CC(=O)Nc3nc(-c4ccc(Cl)c(OC(F)(F)F)c4)cs3)nsc2n(C)c1=O | 99.2 |
| Cn1c(=O)c2c(CC(=O)Nc3nc(-c4ccc(C(F)(F)F)c(F)c4)cs3)nsc2n(C)c1=O | 99.7 |
| Cn1c(=O)c2c(CC(=O)Nc3nc(-c4ccc(C(F)(F)F)cc4F)cs3)nsc2n(C)c1=O | 99.5 |
| Cn1c(=O)c2c(CC(=O)Nc3nc(-c4cccc(C(F)(F)F)c4)cs3)nsc2n(C)c1=O | 99.7 |
| Cn1c(=O)c2c(CC(=O)Nc3nc(-c4ccc(F)c(C(F)(F)F)c4)cs3)nsc2n(C)c1=O | 99.6 |
| Cn1c(=O)c2c(CC(=O)Nc3nc(-c4ccc(OC(F)(F)F)c(F)c4)cs3)nsc2n(C)c1=O | 99.9 |
| Cn1c(=O)c2c(CC(=O)Nc3nc(-c4ccc(F)c(OC(F)(F)F)c4)cs3)snc2n(C)c1=O | 95.5 |
| Cn1c(=O)c2c(CC(=O)Nc3nc(-c4cc(F)c(C(F)(F)F)c(F)c4)cs3)nsc2n(C)c1=O | 100 |
| Cn1c(=O)c2c(CC(=O)Nc3nc(-c4ccc(Cl)cc4)cs3)snc2n(C)c1=O | 99.7 |
| Cn1c(=O)c2c(CC(=O)Nc3nc(-c4ccc(OC(F)(F)F)c(F)c4)cs3)snc2n(C)c1=O | 100 |
| Cn1c(=O)c2c(CC(=O)Nc3nc(-c4cccc(C(F)(F)F)c4F)cs3)nsc2n(C)c1=O | 99.3 |
| Cn1c(=O)c2c(CC(=O)Nc3nc(-c4ccc(F)c(C(F)(F)F)c4F)cs3)nsc2n(C)c1=O | 98.3 |
| Cn1c(=O)c2c(CC(=O)Nc3nc(-c4cccc(C(F)(F)F)c4)cs3)snc2n(C)c1=O | 95.2 |
| Cn1c(=O)c2c(CC(=O)Nc3ccn(-c4ccc(Br)cc4)n3)snc2n(C)c1=O | 100 |
